test: IV bolus PK of NPT-2042 in dog; format: in vivo; conditions: dog, plasma, iv, 10 mg/kg, NPT-2042, dog, IV bolus 10 mg/kg; animals 1201A, 1501A, Mean; read-out: t½ (terminal-phase half-life) (converted)
property name: half-life (min)
Quick note: give the figure in min, leave out the unit.

Answer with the recorded half-life for the compound listed here: CCCCNc1cc(C(=O)N(Cc2ccccc2)Cc2ccccc2)cc(S(N)(=O)=O)c1Oc1ccccc1 [NPT-2042]
255

---

assay: IV bolus PK of NPT-2042 in dog; format: in vivo; conditions: dog, plasma, iv, 10 mg/kg, dog, IV bolus 10 mg/kg; animals 1201A, 1501A, Mean; read-out: Plasma NPT-2042 concentration, Time 2.00 h
property name: concentration at 2 h

Output measured concentration at 2 h for this item: CCCCNc1cc(C(=O)N(Cc2ccccc2)Cc2ccccc2)cc(S(N)(=O)=O)c1Oc1ccccc1 [NPT-2042]
1230 ng/mL

---

assay: IV bolus PK of NPT-2042 in dog; assay type: in vivo; details: dog, plasma, iv, 10 mg/kg, dog, IV bolus 10 mg/kg; animals 1201A, 1501A, Mean; read-out: Plasma NPT-2042 concentration, Time 4.00 h
property name: concentration at 4 h (ng/mL)
Express the result in ng/mL but write the number alone.

Identify measured concentration at 4 h corresponding to `CCCCNc1cc(C(=O)N(Cc2ccccc2)Cc2ccccc2)cc(S(N)(=O)=O)c1Oc1ccccc1`
688

---

experiment: Oral dose PK of NPT-2042 in rat; format: in vivo; conditions: rat, in vivo, oral, 30 mg/kg, rat, oral, dose column 30 mg/kg; individual rats and Mean (N=3); read-out: NPT-2042 concentration, Time 2.00 h
property name: concentration at 2 h (ng/mL)
Dear colleague, please return just the value in ng/mL, with no unit written.

Look up and report measured concentration at 2 h for this entry: CCCCNc1cc(C(=O)N(Cc2ccccc2)Cc2ccccc2)cc(S(N)(=O)=O)c1Oc1ccccc1 [NPT-2042]
4

---

assay: IV bolus PK of NPT-2042 in rat; type: in vivo; conditions: in vivo; NPT-2042, rat, IV bolus 10 mg/kg; read-out: t½ (converted)
property name: half-life (h)
// return numeric value only (unit: h, not printed)

Return the recorded half-life value; entry: CCCCNc1cc(C(=O)N(Cc2ccccc2)Cc2ccccc2)cc(S(N)(=O)=O)c1Oc1ccccc1 [NPT-2042]
2.61

---

assay: IV bolus PK of NPT-2042 in dog; type: in vivo; details: dog, plasma, iv, 10 mg/kg, NPT-2042, dog, IV bolus 10 mg/kg; animals 1201A, 1501A, Mean; read-out: CL (total body clearance) (converted)
property name: clearance (mL/min/kg)
Please give a number only; it is taken to be in mL/min/kg.

Report measured clearance; entry is `CCCCNc1cc(C(=O)N(Cc2ccccc2)Cc2ccccc2)cc(S(N)(=O)=O)c1Oc1ccccc1`
17.8

---

experiment: Oral dose PK of NPT2042 in dog (AUC for absolute bioavailability); format: in vivo; settings: dog, in vivo, po, 30 mg/kg, NPT2042, dog, oral 30 mg/kg; animals D0001, D0601, Mean
property name: AUC(0-inf)

Given the compound `CCCCNc1cc(C(=O)N(Cc2ccccc2)Cc2ccccc2)cc(S(N)(=O)=O)c1Oc1ccccc1` , write its reported AUC(0-inf).
1360 ng·h/mL
